Assay: Half life in rat at 0.5 mg/kg, iv
Assay type: ADME, organism-based
Design: dose 0.5 mg/kg, route intravenous
Conditions: in vivo
The following molecules are shown together with reported half-life values.
Respond with the bare value in min.

>  <molecule>
Cc1ccc(Oc2ccc(N(C[C@H](O)C(=O)NO)S(C)(=O)=O)cc2)cc1

>  <half-life, min>
25.8

$$$$

We next turn to a different molecule, shown below.
Provide one value: measured half-life of Cc1ccc(Oc2ccc(N(CC(C)(O)C(=O)NO)S(C)(=O)=O)cc2)cc1 (racemic)
43.2

----------
Assay: Selectivity ratio, IC50 for full length MMP2 to IC50 for catalytic domain MMP9
metric name: Ratio IC50

Here are 3 compounds together with their reported answers.
>  <cpd smiles>
CS(=O)(=O)N(C[C@H](O)C(=O)NO)c1ccc(Oc2ccccc2)cc1

>  <Ratio IC50>
6.3

$$$$
>  <cpd smiles>
CCCS(=O)(=O)N(C[C@H](O)C(=O)NO)c1ccc(Oc2ccc(C)cc2)cc1

>  <Ratio IC50>
4.1

$$$$
>  <cpd smiles>
CS(=O)(=O)N(C[C@H](O)C(=O)NO)c1ccc(OCc2ccc(C(F)(F)F)cc2)cc1

>  <Ratio IC50>
1.9

$$$$

Alright, here's another compound for you.
Fill in Ratio IC50 for record CS(=O)(=O)N(C[C@H](O)C(=O)NO)c1ccc(OCc2ccc(F)cc2)cc1
0.5

----------
Test: Cmax in rat at 0.5 mg/kg, iv
Format: ADME, organism-based
Set-up: dose 0.5 mg/kg, route intravenous
Details: in vivo
metric name: Cmax (nM)
Give the value, in units of nM, as a plain number.

>  <compound>
Cc1ccc(Oc2ccc(N(CC(C)(O)C(=O)NO)S(C)(=O)=O)cc2)cc1 (racemic)

>  <result units>
nM

>  <measured>
1500

$$$$

Then there is this compound:
Recall and state the measured Cmax for Cc1ccc(Oc2ccc(N(C[C@H](O)C(=O)NO)S(C)(=O)=O)cc2)cc1 .
1300

----------
Parameter: clearance. Scope: all listed entries.
Assay: Clearance in rat at 0.5 mg/kg, iv
Format: ADME, organism-based
Parameters: dose 0.5 mg/kg, route intravenous
Conditions: in vivo
Write the value in mL/min/kg as a bare number.

>  <compound>
Cc1ccc(Oc2ccc(N(CC(C)(O)C(=O)NO)S(C)(=O)=O)cc2)cc1 (racemic)

>  <clearance [mL/min/kg]>
41.5

$$$$

Next up:
State, in one line, measured clearance of Cc1ccc(Oc2ccc(N(C[C@H](O)C(=O)NO)S(C)(=O)=O)cc2)cc1
47.5

----------
Assay: Stability in rat liver microsomes
metric name: half-life
# do not omit the unit; it follows the number

Assign half-life to the following record: Cc1ccc(Oc2ccc(N(CC(C)(O)C(=O)NO)S(C)(=O)=O)cc2)cc1 (racemic)
10 min

----------
Assay: Solubility in water at pH 7
Format: physicochemical
metric name: solubility (µg/mL)
State the answer as a number, implicitly in µg/mL.

>  <molecule>
Cc1ccc(Oc2ccc(N(C[C@H](O)C(=O)NO)S(C)(=O)=O)cc2)cc1

>  <measured>
28

$$$$

// switching to the query molecule
Give the measured solubility for Cc1ccc(Oc2ccc(N(CC(C)(O)C(=O)NO)S(C)(=O)=O)cc2)cc1 (racemic)
28

----------
Target: Matrix metalloproteinase-9 (Homo sapiens)
Sequence (P14780 whole entry): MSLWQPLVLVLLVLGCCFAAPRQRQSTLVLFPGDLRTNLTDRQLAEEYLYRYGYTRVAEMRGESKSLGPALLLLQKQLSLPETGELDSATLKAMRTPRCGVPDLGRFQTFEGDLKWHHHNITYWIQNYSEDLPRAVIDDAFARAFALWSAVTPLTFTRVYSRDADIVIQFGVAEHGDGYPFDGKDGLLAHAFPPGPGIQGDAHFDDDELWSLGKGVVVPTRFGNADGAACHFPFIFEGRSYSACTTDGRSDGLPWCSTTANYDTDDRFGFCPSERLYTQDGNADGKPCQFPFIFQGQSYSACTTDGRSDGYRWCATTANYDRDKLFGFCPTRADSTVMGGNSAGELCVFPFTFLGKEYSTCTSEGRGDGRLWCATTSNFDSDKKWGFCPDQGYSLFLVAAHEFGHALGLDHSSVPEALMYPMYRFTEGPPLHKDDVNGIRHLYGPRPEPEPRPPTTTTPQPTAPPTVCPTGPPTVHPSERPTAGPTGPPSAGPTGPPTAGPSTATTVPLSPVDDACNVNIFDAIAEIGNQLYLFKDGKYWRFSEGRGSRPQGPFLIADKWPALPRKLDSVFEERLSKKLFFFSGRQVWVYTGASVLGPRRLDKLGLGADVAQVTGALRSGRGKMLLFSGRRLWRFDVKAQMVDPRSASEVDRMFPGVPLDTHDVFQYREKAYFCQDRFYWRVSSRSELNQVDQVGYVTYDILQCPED
// reported IC50 for each item listed
// units = nM; emit number, no label

>  <compound>
CCS(=O)(=O)N(C[C@H](O)C(=O)NO)c1ccc(Oc2ccc(C)cc2)cc1

>  <metric name>
IC50

>  <result units>
nM

>  <measured>
28

$$$$
>  <compound>
CC(C)C(=O)N(C[C@H](O)C(=O)NO)c1ccc(Oc2ccc(Cl)cc2)cc1

>  <metric name>
IC50

>  <result units>
nM

>  <measured>
242

$$$$
>  <compound>
CO[C@H](CN(c1ccc(Oc2ccc(C)cc2)cc1)S(C)(=O)=O)C(=O)NO

>  <metric name>
IC50

>  <result units>
nM

>  <measured>
13

$$$$
>  <compound>
CS(=O)(=O)N(C[C@H](O)C(=O)NO)c1ccc(Oc2ccccc2)cc1

>  <metric name>
IC50

>  <result units>
nM

>  <measured>
39

$$$$
>  <compound>
Cc1ccc(Oc2ccc(N(CC(C)(O)C(=O)NO)S(C)(=O)=O)cc2)cc1 (racemic)

>  <metric name>
IC50

>  <result units>
nM

>  <measured>
5.5

$$$$

Fill in IC50 for record CS(=O)(=O)N(C[C@H](O)C(=O)NO)c1ccc(Sc2ccc(F)cc2)cc1
104

In one line, give reported IC50 of the entry CS(=O)(=O)N(CC(=O)NO)c1ccc(Oc2ccccc2)cc1 .
383

Please give measured IC50 of the following entry: Cc1ccc(Sc2ccc(N(C[C@H](O)C(=O)NO)S(C)(=O)=O)cc2)cc1
54

Give the reported IC50 for this compound. Cc1ccc(C#Cc2ccc(N(C[C@H](O)C(=O)NO)S(C)(=O)=O)cc2)cc1
44

# return recorded IC50 for input CS(=O)(=O)N(C[C@H](O)C(=O)NO)c1ccc(OCc2ccc(C(F)(F)F)cc2)cc1
1490
